system: P388 leukemia ip, CD2F1 mice, survival T/C; assay: NCI In Vivo Anticancer Drug Screen. Data for tumor model P388 Leukemia (intraperitoneal) in CD2F1 (CDF1) mice; details: endpoint: median survival time; dose: 25.0 mg/kg/injection; schedule: Q01DX005 (ip); vehicle: saline with Tween-80; higher = longer survival
Inconclusive results and toxic doses are left out.
T/C: recorded values

{"COMPOUND": "Cc1cc2c(cc1C)C(=O)c1c(C)ccc(C)c1C2=O", "MEASURED_VALUE": "99 % of control"}
{"COMPOUND": "CCCCN1C=C(C)N(CCCC)CC1", "MEASURED_VALUE": "114 % of control"}
{"COMPOUND": "c1ccc2c(c1)Cc1c-2nc2ccccc2c1N1CCOCC1", "MEASURED_VALUE": "100 % of control"}
{"COMPOUND": "COc1ccc2[nH]c3c(c2c1)C(c1ccccc1)c1ccccc1-3 (stereo not given)", "MEASURED_VALUE": "88 % of control"}

# context switch: different compound, same T/C
Briefly, T/C measured for CC(=O)OCn1cc2c3c(cccc31)C1CC(C)CN(C)C1C2 (stereo not given) : 106 % of control

====

Attribute: T/C
tested on: P388 leukemia ip, CD2F1 mice, survival T/C; experiment: NCI In Vivo Anticancer Drug Screen. Data for tumor model P388 Leukemia (intraperitoneal) in CD2F1 (CDF1) mice; details: endpoint: median survival time; dose: 12.5 mg/kg/injection; schedule: Q01DX005 (ip); vehicle: Klucel (hydroxypropylcellulose) (HPC); higher = longer survival
Toxic doses and inconclusive results are not listed.

Examples with their reported T/C follow.
{"COMPOUND": "COc1ccc(Cc2cc(N=NC(N)=O)c(C)cc2O)cc1", "T/C": "106 % of control"}
{"COMPOUND": "Cc1cccc(/C=N/Nc2ccc3ccccc3n2)n1", "T/C": "95 % of control"}

With those in mind, consider the next compound.
Notebook: Cc1ccc(NCCNCC(O)CO)c2c(=O)c3ccccc3sc12 (stereo not drawn) , T/C read as 109 % of control

====

tested on: P388 leukemia ip, CD2F1 mice, survival T/C; assay: NCI In Vivo Anticancer Drug Screen. Data for tumor model P388 Leukemia (intraperitoneal) in CD2F1 (CDF1) mice; details: endpoint: median survival time; dose: 120.0 mg/kg/injection; schedule: Q01DX005 (ip); vehicle: saline; higher = longer survival
Inconclusive results and toxic doses are left out.
T/C values, listed per item

{"MOLECULE": "C=CC1C(C[C@@H]2c3cc(O)c(O)cc3CCN2C(C)=O)C(C(=O)OC)=CO[C@H]1OC1OC(CO)C(O)C(O)C1O (stereo partly drawn)", "ASSAY_TARGET": "P388 leukemia ip, CD2F1 mice, survival T/C", "MEASURED_VALUE": "103 % of control"}
{"MOLECULE": "CCOC(=O)/C(NC(=O)c1ccccc1)=C(\\NC(=O)c1ccccc1)C(=O)OCC", "ASSAY_TARGET": "P388 leukemia ip, CD2F1 mice, survival T/C", "MEASURED_VALUE": "96 % of control"}

response.value for COc1ccc(S(N)(=O)=O)cc1C(=O)N1CCN2CCCC2C1 (stereo not drawn) (field: T/C) = 100 % of control

====

system: P388 leukemia ip, CD2F1 mice, survival T/C; assay: NCI In Vivo Anticancer Drug Screen. Data for tumor model P388 Leukemia (intraperitoneal) in CD2F1 (CDF1) mice; settings: endpoint: median survival time; dose: 100.0 mg/kg/injection; schedule: Q01DX005 (ip); vehicle: saline with Tween-80; higher = longer survival
Inconclusive results and toxic doses are left out.
MEASURED_ATTRIBUTE: T/C

Example entries and their recorded answers appear below.
{"STRUCTURE": "[B-][N+](C)(C)C", "ASSAY_TARGET": "P388 leukemia ip, CD2F1 mice, survival T/C", "MEASURED_VALUE": "98 % of control"}
{"STRUCTURE": "N/C(=N\\OC(=O)NC(Cl)=C(Cl)Cl)c1cc(C(F)(F)F)cc(C(F)(F)F)c1", "ASSAY_TARGET": "P388 leukemia ip, CD2F1 mice, survival T/C", "MEASURED_VALUE": "102 % of control"}

Shift focus to the following entry.
molecule CS(=O)(=O)O/C=C1\CCc2ccccc2C1=O , T/C observed: 98 % of control

====

system: P388 leukemia ip, CD2F1 mice, survival T/C; experiment: NCI In Vivo Anticancer Drug Screen. Data for tumor model P388 Leukemia (intraperitoneal) in CD2F1 (CDF1) mice; conditions: endpoint: median survival time; dose: 400.0 mg/kg/injection; schedule: Q04DX003 (ip); vehicle: Klucel (hydroxypropylcellulose) (HPC); higher = longer survival
Inconclusive results and toxic doses are left out.
Property: T/C; scope: individual molecules

{"MOLECULE": "CCCC1(c2ccccc2)CCCC(C#N)C1=N (configuration not stated)", "MEASURED_VALUE": "92 % of control"}
{"MOLECULE": "c1ccc(CSc2nn[nH]n2)cc1", "MEASURED_VALUE": "101 % of control"}
{"MOLECULE": "Cc1nn(-c2ccccc2)c(N)c1C#N", "MEASURED_VALUE": "104 % of control"}
{"MOLECULE": "CN(C)c1nc(=O)c2c(o1)CC(C)(C)C2", "MEASURED_VALUE": "90 % of control"}
{"MOLECULE": "Clc1ccccc1CN1COc2c(cc(Cl)c3cccnc23)C1", "MEASURED_VALUE": "95 % of control"}
{"MOLECULE": "Cc1ccn(C(=O)C2=Cc3ccccc3OC2)c(=N)c1", "MEASURED_VALUE": "100 % of control"}

Proceed to the following item.
The value of T/C measured for the molecule O=P(O)(O)SP(=O)(O)O.[Mn] turned out to be 119 % of control

====

Collected T/C values appear next to each entry.
tested on: P388 leukemia ip, CD2F1 mice, survival T/C; assay: NCI In Vivo Anticancer Drug Screen. Data for tumor model P388 Leukemia (intraperitoneal) in CD2F1 (CDF1) mice; conditions: endpoint: median survival time; dose: 25.0 mg/kg/injection; schedule: Q01DX009 (ip); vehicle: saline with Tween-80; higher = longer survival
Toxic doses and inconclusive results are not listed.

Note to self: T/C recorded for C(=Nc1ccccc1-c1ccccc1N=Cc1ccccc1)c1ccccc1 was 86 % of control

response.value for O=S(=O)(CCl)OCCCl (field: T/C) = 120 % of control

Sample Cc1ccc(C(=O)N=[N+]=[N-])o1 ; T/C observed: 100 % of control

// T/C lookup, compound = CCc1nc2nc(C)cc(C)n2n1 , result: 100 % of control

Item: CCCCCCC(/C=C/c1ccc(Cl)c(Cl)c1)=N\Nc1ccccc1 | T/C: 103 % of control

Please fill in: T/C reported for Cc1ccc(S(=O)(=O)NC(=O)NC(C)Cc2ccccc2)cc1 (centres undefined) = 100 % of control

Recorded T/C (compound OCNC(=S)c1c(Cl)cccc1Cl ): 111 % of control

T/C recorded for this compound, CCO/C=N/NS(=O)(=O)c1ccc(C)cc1 , is 98 % of control

Lab note: measured T/C of COc1cccc2cc(C)[nH]c12 was 97 % of control

Item: CN(C)CCC(=O)/C=C/c1ccc(Cl)c(Cl)c1 | T/C: 113 % of control

For Cc1c2cc[n+]([O-])cc2c(C)c2c1oc1ccccc12 the compound record lists T/C as 115 % of control

The value of T/C measured for the compound O=[N+]([O-])c1cccn2nnnc12 turned out to be 95 % of control

Lookup result for c1ccc(CN2C3Oc4ccccc4C2Oc2ccccc23)cc1 ; measured T/C: 100 % of control

What the record says about CN(c1ccccc1)c1c2c(oc(=O)c1Cl)-c1ccccc1SC2 : T/C is 93 % of control

====

Let's look at some molecules and their measured T/C.
test system: P388 leukemia ip, CD2F1 mice, survival T/C; assay: NCI In Vivo Anticancer Drug Screen. Data for tumor model P388 Leukemia (intraperitoneal) in CD2F1 (CDF1) mice; details: endpoint: median survival time; dose: 100.0 mg/kg/injection; schedule: Q01DX005 (ip); vehicle: Klucel (hydroxypropylcellulose) (HPC); higher = longer survival
Toxic doses and inconclusive results are not listed.

# annotated cases, reported T/C shown
{"MOLECULE": "C=Cc1c(C)c2cc3[nH]c(cc4nc(cc5nc(cc1[nH]2)C(C)=C5CCC(=O)OC)C(CCC(=O)OC)=C4C)c(C)c3C#N", "MEASURED_VALUE": "109 % of control"}
{"MOLECULE": "COc1cc([N+](=O)[O-])c(S(=O)(=O)O)cc1N=N/C(=N/Nc1cc(S(=O)(=O)O)c([N+](=O)[O-])cc1OC)C(=O)Nc1ccccc1", "MEASURED_VALUE": "93 % of control"}
{"MOLECULE": "COc1cc(Br)c(C2=C3c4cc(OC)c(OC)cc4CCN3C(=O)C2=O)cc1OC", "MEASURED_VALUE": "93 % of control"}
{"MOLECULE": "Cc1c(CCNC=O)ccc2c1[nH]c1ccccc12", "MEASURED_VALUE": "96 % of control"}
{"MOLECULE": "CS(=O)(=O)c1nnc(-c2cccc[n+]2[O-])s1", "MEASURED_VALUE": "114 % of control"}

# T/C of O=C1c2ccccc2C(=O)N1Cc1ccccc1Br = 101 % of control

Query Cc1ccccc1-n1c(C)nc2c(cnn2C)c1=O yields T/C of 95 % of control

Quick note, T/C for c1ccc2c3c([nH]c2c1)CN1CCCCC1C3 (stereo unspecified) landed at 96 % of control

# T/C (molecule: C=C1C(=O)N2CCc3c([nH]c4ccccc34)[C@H]2C[C@@H]1CO ) is 88 % of control

Consider COC(=O)CC1C(C)=CCC2C(=O)C=C(OC)C(=O)C21C (stereo unspecified) . Its measured T/C is 101 % of control

T/C reading for COc1cc2c(c3c1c(=O)c1cccnc1n3C)C=CC(C)(C)O2 : 101 % of control

Memo: COC(=O)C1C2c3ccccc3C(C1C(=O)OC)[n+]1ccccc12 (stereo unspecified) , reported T/C: 100 % of control

# T/C of COC(=O)C1=C(C(=O)OC)P(I)(c2ccccc2)(c2ccccc2)N(C)C1(c1ccccc1)c1ccccc1 = 100 % of control
